Values from paper PMC4569415

- System: 1BR3G
- test_method_notes: MTT cytotoxicity assay
- Assay type: cell-based
- assay_context: Homo sapiens, 48 h of treatment, non malignant cells
pIC50: −log10 of the molar value.
observable: pIC50

CN(Cc1ccccn1)[C@H]1CCCC[C@@H]1N(C)Cc1ccccn1 [Compound 3] ... 4.35
CN1CCN(Cc2ccccn2)CCN(Cc2ccccn2)CC1 [Compound 5] ... 4.74
c1ccc(CN2CCC[C@H]2[C@@H]2CCCN2Cc2ccccn2)nc1 [Compound 1] ... 4.90
CN(C)c1ccnc(CN2CCC[C@H]2[C@@H]2CCCN2Cc2cc(N(C)C)ccn2)c1 [Compound 2] ... 5.12
CN1CCN(C)CCN(Cc2ccccn2)CC1 [Compound 4] ... 4.11

----------
- System: MCF-7 cells
- test_method_notes: MTT cytotoxicity assay
- Format: cell-based, human
- assay_context: Homo sapiens, MCF7; MTT, 48 h of compound exposure
pIC50: −log10 of the molar value.
observable: pIC50

CN(C)c1ccnc(CN2CCC[C@H]2[C@@H]2CCCN2Cc2cc(N(C)C)ccn2)c1 ... 5.43
CN1CCN(C)CCN(Cc2ccccn2)CC1 ... 4.05
CN(Cc1ccccn1)[C@H]1CCCC[C@@H]1N(C)Cc1ccccn1 ... 4.39
CN1CCN(Cc2ccccn2)CCN(Cc2ccccn2)CC1 ... 5.11
c1ccc(CN2CCC[C@H]2[C@@H]2CCCN2Cc2ccccn2)nc1 ... 5.13

----------
Each entry below carries its reported IC50.
- Tested on: JURKAT
- test_method_notes: MTT cytotoxicity assay
- Format: cell-based
- assay_context: Homo sapiens, 48 h of treatment
observable: IC50 (µM)

c1ccc(CN2CCC[C@H]2[C@@H]2CCCN2Cc2ccccn2)nc1 ... 15.1
CN(C)c1ccnc(CN2CCC[C@H]2[C@@H]2CCCN2Cc2cc(N(C)C)ccn2)c1 ... 7.2
CN1CCN(Cc2ccccn2)CCN(Cc2ccccn2)CC1 ... 5.4

----------
- Test system: CS-like HMLER-shEcad cells
- test_method_notes: MTT cytotoxicity assay in cancer stem-like cells
- Assay type: cell-based, human
- assay_context: Homo sapiens, 48 h
observable: IC50 (µM)

CN(C)c1ccnc(CN2CCC[C@H]2[C@@H]2CCCN2Cc2cc(N(C)C)ccn2)c1 ... 6.8
c1ccc(CN2CCC[C@H]2[C@@H]2CCCN2Cc2ccccn2)nc1 ... 5.3
COc1cccc2c1C(=O)c1c(O)c3c(c(O)c1C2=O)C[C@@](O)(C(=O)CO)C[C@@H]3O[C@H]1C[C@H](N)[C@H](O)[C@H](C)O1 [doxorubicin, reference compound] ... 0.3
CN1CCN(Cc2ccccn2)CCN(Cc2ccccn2)CC1 ... 8.6

----------
Each entry below carries its reported pIC50.
- System: tumor (PC-3, Z-138 and JURKAT) cell lines
- test_method_notes: MTT cytotoxicity assay, tumor cell selection
- Assay type: cell-based
- assay_context: Homo sapiens, range over PC-3, Z-138 and JURKAT, 48 h, read-out: IC50 values against tumor cells (range)
pIC50: −log10 of the molar value.
observable: pIC50

CN1CCN(Cc2ccccn2)CCN(Cc2ccccn2)CC1 ... 5.11 to 5.54
c1ccc(CN2CCC[C@H]2[C@@H]2CCCN2Cc2ccccn2)nc1 ... 4.82 to 5.32
CN(C)c1ccnc(CN2CCC[C@H]2[C@@H]2CCCN2Cc2cc(N(C)C)ccn2)c1 ... 5.14 to 5.42

----------
- Test system: CAPAN-1 cells
- test_method_notes: MTT cytotoxicity assay
- Type: cell-based, human
- assay_context: MTT, 48 h of compound exposure
- Procedure: The cytotoxic activity of the compounds was determined by MTT reduction assay as described. Compounds were diluted in Milli-Q water to obtain 1 mmol/L stock solutions. Appropriate aliquots of these solutions were diluted in the corresponding cell culture medium to obtain the final working concentrations. […]
pIC50: −log10 of the molar value.
observable: pIC50

N.N.[Cl][Pt][Cl] [Cisplatin, reference compound] ... 5.66

----------
- System: PC-3
- test_method_notes: MTT cytotoxicity assay
- Type: cell-based
- assay_context: Homo sapiens, 48 h of treatment
pIC50: −log10 of the molar value.
observable: pIC50

CN(Cc1ccccn1)[C@H]1CCCC[C@@H]1N(C)Cc1ccccn1 [Compound 3] ... 4.46
c1ccc(CN2CCC[C@H]2[C@@H]2CCCN2Cc2ccccn2)nc1 [Compound 1] ... 5.07
CN1CCN(Cc2ccccn2)CCN(Cc2ccccn2)CC1 [Compound 5] ... 5.11
CN(C)c1ccnc(CN2CCC[C@H]2[C@@H]2CCCN2Cc2cc(N(C)C)ccn2)c1 [Compound 2] ... 5.42
